Cited source: paper PMC10005301

test: IS-RPLC retention on silica-based C18 column, logkw by linear solvent strength model; format: physicochemical; conditions: pH 7.0; methanol/20 mmol/L ammonium phosphate buffer, Welch Xtimate C18, 30 °C; 100% aqueous extrapolation
measured-quantity: logkw-pH 7.0

{"compound": "O=C(n1ccnc1)n1ccnc1", "measured-quantity": "logkw-pH 7.0", "assay-value": "−0.39"}
{"compound": "Cc1ccncc1", "measured-quantity": "logkw-pH 7.0", "assay-value": 1.40}
{"compound": "CCc1ccccn1", "measured-quantity": "logkw-pH 7.0", "assay-value": 1.74}
{"compound": "Nc1c(Cl)cc([N+](=O)[O-])cc1[N+](=O)[O-]", "measured-quantity": "logkw-pH 7.0", "assay-value": 2.19}
{"compound": "Cc1ccnc(C)c1", "measured-quantity": "logkw-pH 7.0", "assay-value": 1.76}
{"compound": "NCc1ccccc1", "measured-quantity": "logkw-pH 7.0", "assay-value": 0.36}
{"compound": "O=C(O)c1cc(O)nc(O)c1", "measured-quantity": "logkw-pH 7.0", "assay-value": 1.18}
{"compound": "CCC(C(N)=O)N1CCCC1=O (stereo not drawn)", "measured-quantity": "logkw-pH 7.0", "assay-value": 0.80}
{"compound": "c1c[nH]cn1", "measured-quantity": "logkw-pH 7.0", "assay-value": "−0.53"}
{"compound": "COc1nc(C)nc(N)n1", "measured-quantity": "logkw-pH 7.0", "assay-value": 1.36}
{"compound": "Cc1cc(C)nc(C)c1", "measured-quantity": "logkw-pH 7.0", "assay-value": 2.06}
{"compound": "Cc1cc([N+](=O)[O-])ccc1N", "measured-quantity": "logkw-pH 7.0", "assay-value": 1.76}

---

test: IS-RPLC retention on silica-based C18 column, logkw by linear solvent strength model; type: physicochemical; conditions: pH 8.0; methanol/20 mmol/L ammonium phosphate buffer, Welch Xtimate C18, 30 °C; 100% aqueous extrapolation

{"molecule": "Nc1cccc(N)c1", "logkw-pH 8.0": 0.07}
{"molecule": "Cc1cc([N+](=O)[O-])ccc1N", "logkw-pH 8.0": 1.79}
{"molecule": "Nc1ccc([N+](=O)[O-])cc1[N+](=O)[O-]", "logkw-pH 8.0": 1.86}
{"molecule": "CCc1ccccn1", "logkw-pH 8.0": 1.79}
{"molecule": "Nc1c(Cl)cc([N+](=O)[O-])cc1[N+](=O)[O-]", "logkw-pH 8.0": 2.25}
{"molecule": "Nc1ccc(F)cc1", "logkw-pH 8.0": 1.12}
{"molecule": "Cc1ccnc(C)c1", "logkw-pH 8.0": 1.85}
{"molecule": "O=C(n1ccnc1)n1ccnc1", "logkw-pH 8.0": "−0.38"}
{"molecule": "Cc1ccccn1", "logkw-pH 8.0": 1.32}
{"molecule": "NCc1ccccc1", "logkw-pH 8.0": 0.49}
{"molecule": "CCc1ccccc1N", "logkw-pH 8.0": 1.94}
{"molecule": "Nc1ccccc1", "logkw-pH 8.0": 0.95}
{"molecule": "CC(C)c1ccc(N)cc1", "logkw-pH 8.0": 2.57}
{"molecule": "Nc1ccc(I)cc1", "logkw-pH 8.0": 2.28}
{"molecule": "c1c[nH]cn1", "logkw-pH 8.0": "−0.39"}
{"molecule": "Cc1ccnc(N)c1", "logkw-pH 8.0": 1.16}
{"molecule": "Nc1ncncn1", "logkw-pH 8.0": 1.36}
{"molecule": "Cc1cccc(C)n1", "logkw-pH 8.0": 1.76}
{"molecule": "CCC(C(N)=O)N1CCCC1=O (stereo not drawn)", "logkw-pH 8.0": 0.66}
{"molecule": "O=C(O)c1cc(O)nc(O)c1", "logkw-pH 8.0": 1.18}
{"molecule": "CN(C)Cc1ccccc1", "logkw-pH 8.0": 1.61}

---

assay: IS-RPLC retention on silica-based C18 column, logkw by linear solvent strength model; type: physicochemical; settings: pH 8
Label scheme for logkw-pH 8.0: bin 0 = under 1, bin 1 = from 1 up to 2, bin 2 = 2 and over

{"molecule": "COc1ccccc1N", "class-name": "bin 1"}
{"molecule": "CCN(CC)c1ccccc1", "class-name": "bin 2"}
{"molecule": "Cc1ccc(N)cc1", "class-name": "bin 1"}
{"molecule": "Nc1ccccc1N", "class-name": "bin 0"}
{"molecule": "Cc1ccccc1N", "class-name": "bin 1"}
{"molecule": "CN(C)c1ccccc1", "class-name": "bin 2"}
{"molecule": "Nc1ccc([N+](=O)[O-])cc1Cl", "class-name": "bin 2"}
{"molecule": "Cc1c[nH]cn1", "class-name": "bin 0"}
{"molecule": "CCOc1ccc(N)cc1", "class-name": "bin 1"}

---

details: pH 10.0; calculated with literature logP, pKa and pH, Equation (S3)
measured-quantity: logDpH 10.0

{"molecule": "Cc1cc(C)nc(C)c1", "measured-quantity": "logDpH 10.0", "assay-value": 2.01}
{"molecule": "CCc1ccccn1", "measured-quantity": "logDpH 10.0", "assay-value": 2.05}
{"molecule": "CN(C)Cc1ccccc1", "measured-quantity": "logDpH 10.0", "assay-value": 1.95}

---

Below, each entry is listed with its recorded chromatographic logD.
test: logD determined by multi-parameter QSRR models from IS-RPLC logkw; conditions: IS-RPLC retention (logkw), pH 9

{"molecule": "c1ccc(CNCc2ccccc2)cc1", "chromatographic logD": 2.81}
{"molecule": "Nc1cccc(S(=O)(=O)c2cccc(N)c2)c1", "chromatographic logD": 1.2}
{"molecule": "Nc1ncncn1", "chromatographic logD": 0.95}

---

assay: IS-RPLC retention on silica-based C18 column, logkw by linear solvent strength model; format: physicochemical; conditions: pH 10.0; methanol/20 mmol/L ammonium phosphate buffer, Welch Xtimate C18, 30 °C; 100% aqueous extrapolation
Below, each entry is listed with its recorded logkw-pH 10.0.
measured-quantity: logkw-pH 10.0

{"molecule": "COc1nc(C)nc(N)n1", "assay-value": 1.43}
{"molecule": "Nc1ncncn1", "assay-value": 1.43}
{"molecule": "Cc1cc([N+](=O)[O-])ccc1N", "assay-value": 1.84}
{"molecule": "NCc1ccccc1", "assay-value": 1.42}
{"molecule": "Cc1ccnc(C)c1", "assay-value": 1.96}
{"molecule": "Nc1ccc(Br)cc1", "assay-value": 1.99}
{"molecule": "Nc1cccc(S(=O)(=O)c2cccc(N)c2)c1", "assay-value": 1.47}
{"molecule": "CC(C)c1ccc(N)cc1", "assay-value": 2.65}
{"molecule": "CCc1ccccn1", "assay-value": 1.90}
{"molecule": "CCc1ccccc1N", "assay-value": 1.95}
{"molecule": "Cc1ccccn1", "assay-value": 1.36}
{"molecule": "Nc1c(Cl)cc([N+](=O)[O-])cc1[N+](=O)[O-]", "assay-value": 2.30}
{"molecule": "Cc1ccncc1", "assay-value": 1.46}

---

test: IS-RPLC retention on silica-based C18 column, logkw by linear solvent strength model; format: physicochemical; settings: pH 10.0; methanol/20 mmol/L ammonium phosphate buffer, Welch Xtimate C18, 30 °C; 100% aqueous extrapolation
Binary classification by logkw-pH 10.0, with 1 as an inclusive lower bound for Y; all other cases are N.

{"compound": "O=C(O)c1cc(O)nc(O)c1 [Citrazinic acid]", "class-name": "Y"}
{"compound": "Nc1ccc(F)cc1 [4-Fluoroaniline]", "class-name": "Y"}
{"compound": "CCC(C(N)=O)N1CCCC1=O (stereo not drawn) [Etiracetam]", "class-name": "N"}
{"compound": "Cc1ccnc(N)c1 [2-Amino-4-methylpyridine]", "class-name": "Y"}
{"compound": "Cc1cccc(C)n1 [2,6-Dimethylpyridine]", "class-name": "Y"}
{"compound": "Nc1ccc(I)cc1 [4-Iodoaniline]", "class-name": "Y"}

---

Settings: pH 8.0; calculated with literature logP, pKa and pH, Equation (S3)
Procedure: The retention behavior of the 42 basic compounds (Table 1) were investigated at different ratios of methanol (φ = 0.7–0.1, the interval was 0.1 or 0.05 based on the retention of the investigated solutes). […] The logD values of the model compounds and verification compounds calculated using Equation (S3) based on the logP and pH values are also listed in Table 1. At each pH, the retention time (tR) of every analyte was determined for at least four different volume fractions (φ) of methanol. […]

{"molecule": "CCc1ccccn1", "logDpH 8.0": 2.05}
{"molecule": "CN(C)Cc1ccccc1", "logDpH 8.0": 1.12}
{"molecule": "Cc1ccnc(C)c1", "logDpH 8.0": 1.63}
{"molecule": "Cc1ccnc(N)c1", "logDpH 8.0": 0.80}

---

Below, each entry is listed with its recorded logkw-pH 10.0.
Assay: IS-RPLC retention on silica-based C18 column, logkw by linear solvent strength model
Format: physicochemical
Conditions: pH 10
Experimental: The retention behavior of the 42 basic compounds (Table 1) were investigated at different ratios of methanol (φ = 0.7–0.1, the interval was 0.1 or 0.05 based on the retention of the investigated solutes). […] The logD values of the model compounds and verification compounds calculated using Equation (S3) based on the logP and pH values are also listed in Table 1. […] At each pH, the retention time (tR) of every analyte was determined for at least four different volume fractions (φ) of methanol. […]
measured-quantity: logkw-pH 10.0

{"molecule": "Nc1ccc([N+](=O)[O-])cc1Cl", "measured-quantity": "logkw-pH 10.0", "assay-value": 2.18}
{"molecule": "c1ccncc1", "measured-quantity": "logkw-pH 10.0", "assay-value": 1.05}
{"molecule": "CCOc1ccc(N)cc1", "measured-quantity": "logkw-pH 10.0", "assay-value": 1.60}
{"molecule": "Nc1ccc(N)cc1", "measured-quantity": "logkw-pH 10.0", "assay-value": "−0.04"}
{"molecule": "CN(C)c1ccccc1", "measured-quantity": "logkw-pH 10.0", "assay-value": 2.44}
{"molecule": "CCN(CC)c1ccccc1", "measured-quantity": "logkw-pH 10.0", "assay-value": 3.54}
{"molecule": "Cc1ccc(N)c(C)c1", "measured-quantity": "logkw-pH 10.0", "assay-value": 2.04}
{"molecule": "Cc1ccccc1N", "measured-quantity": "logkw-pH 10.0", "assay-value": 1.49}
{"molecule": "COc1ccc(N)cc1", "measured-quantity": "logkw-pH 10.0", "assay-value": 1.11}
